system: SK-OV-3 ovarian; experiment: NCI tumour cell line growth inhibition, 48 h
READOUT TYPE: TGI

Past entries and their recorded results:
CC[C@@H](C(=O)[C@@H](C)[C@@H](O)[C@H](C)[C@@H]1O[C@@H]([C@@H](CC)C(=O)O)CC[C@@H]1C)[C@H]1OC2(C=C[C@@H](O)[C@]3(CC[C@@](C)([C@H]4CC[C@](O)(CC)[C@H](C)O4)O3)O2)[C@H](C)C[C@@H]1C (some centres undefined)	22.6 µM
O=c1c2cc(Br)cc(Br)c2[nH]c(=S)n1-c1ccccc1	> 100 µM
Cc1cc(C(=O)N2CCN(Cc3ccccc3)CC2)c(C)o1	> 100 µM
O=C(N/N=C1/C(=O)c2c3ccccc3cc3cccc1c23)c1cccc(Cl)c1	> 100 µM
Cc1ccc2[nH]c3[nH]c(=O)[nH]c(=O)c3c2c1	> 100 µM

## Input Recorded TGI of C[C@@H](NC(=O)OC1C=CC2(CC1)C(=O)N(C)c1ccccc12)c1cccc2ccccc12 (some centres undefined) , please.
## Output > 25 µM

## Input Data request, read-out TGI, for CN(C)CCCNc1nccc(-c2c(-c3ccc(F)cc3)nn3cc(C(F)(F)F)ccc23)n1
## Output > 25 µM

## Input Look up TGI: CNc1ccc(-c2cc(=O)oc3ccc(Cl)cc23)cc1
## Output > 100 µM

## Input Give the measured TGI of CCN(CC)Cc1nc(C2CCC([N+](=O)[O-])O2)no1 (centres undefined) .
## Output > 100 µM

====

system: HS 578T breast; test: NCI tumour cell line growth inhibition, 48 h
READOUT TYPE: TGI

Recorded TGI, per entry:
COC(=NCCC1=CCCCC1)OC	> 100 µM
O=C(CCCc1ccccn1)c1ccccc1	> 100 µM
C#CCOC(=O)C(N)CSSCC(N)C(=O)O (stereo unspecified)	> 100 µM
COc1ccc(N[C@H](CS(=O)c2ccc(C)cc2)C(F)(F)C(F)(F)F)cc1 (stereo partly specified)	> 100 µM
N#Cc1c(NC(=O)CN2CCOCC2)sc2c1CCCC2	> 25 µM

## Input Quick one: TGI of N#CC(C#N)=C(N)/C(C#N)=C/c1cc(O)c(O)c(Br)c1 ?
## Output > 100 µM

====

Here, each record is paired with measured TGI data.
system: SF-539 CNS; assay: NCI tumour cell line growth inhibition, 48 h
State just the number; it will be interpreted in µM.

O=C(CCc1ccc(O)c(O)c1)NCCc1cc(OCc2ccccc2)cc(OCc2ccccc2)c1	30.1
CC1C/C(=N\N(C)C)C(C#N)(C#N)C1(C#N)C#N (centres undefined)	34.8
C=C(CS(=O)(=O)c1ccccc1)[P+](c1ccccc1)(c1ccccc1)c1ccccc1	78.2

Note: attention shifts to another entry.
## Input Please look up its TGI: COc1cc(C(C)c2cc3c(cc2OCCCCOc2cc4c(cc2C(C)c2cc(OC)c(OC)c(OC)c2)OCO4)OCO3)cc(OC)c1OC (centres undefined)
## Output 55.4

====

// values below are reported TGI
tested on: LOX IMVI melanoma; assay: NCI tumour cell line growth inhibition, 48 h
Kindly answer with a numeric value in µM, unit omitted.

Observe how each entry below is paired with its result.
CC[C@@H](C(=O)[C@@H](C)[C@@H](O)[C@H](C)CCc1ccc(C)c(O)c1C(=O)O)[C@H]1O[C@](CC)([C@H]2CC[C@](O)(CC)[C@H](C)O2)C[C@@H]1C	12
CC(C)=CC(=O)OC1C2C(C)C(=O)OC2C(O)C(C)C2C=CC(=O)C21C (centres undefined)	3.44
Oc1cc(O)c2c(=S)cc(-c3ccc(Cl)cc3)oc2c1	11.6
Oc1c(-c2ccccc2)sc2ccccc12	32.3
O=C(OCC12CC3CC(CC(C3)C1)C2)c1ccc(NCc2cc(O)ccc2O)cc1	4.72

## Input Please give the measured TGI for this compound: CC(C)=CCc1c(C)cc2cc3c(c(O)c2c1O)C(O)=CC(=O)C3(CC=C(C)C)C/C=C(\C)CO (centres undefined)
## Output 77.4

====

tested on: HOP-92 NSCLC; experiment: NCI tumour cell line growth inhibition, 48 h
A collection of compounds and their measured TGI
Record the value in µM, omitting the unit from your answer.

Solved cases below.
Cc1cc(C)cc(Sc2c([N+](=O)[O-])ncn2C)c1	41.7
COc1cccc(C2C3=C(COC3=O)N(CCO)c3cc4c(cc32)OCCO4)c1 (stereo not given)	2.89
CCN(CC)C(=S)SC1CCOP(=O)(N(CCCl)CCCl)N1C (stereo not given)	43.9
COc1ccc(C2=C(c3cc(OC)c(OC)c(OC)c3)C(=O)CC2)cc1	54.1
Cc1nc(/N=C(\N)NC(=O)Nc2ccccc2Cl)sc1C	15.8
CC(C)[Si](OC1=C(C(=O)N(C)c2ccccc2Cl)CCC1)(C(C)C)C(C)C	32.7

## Input GET /values?readout=TGI&item= CCOC(=O)c1cc2c([nH]1)C(=O)CC1=C2CCN1Cc1ccccc1
## Output 28.3

## Input Sample CC[C@@H](C(=O)[C@@H](C)[C@@H](O)[C@H](C)CCc1ccc(C)c(O)c1C(=O)O)[C@H]1O[C@](CC)([C@H]2CC[C@](O)(CC)[C@H](C)O2)C[C@@H]1C — what was its TGI?
## Output 8.96

## Input Find the recorded TGI belonging to Cc1c(CCCl)c(N=[N+]=[N-])n2c(nc3ccccc32)c1C#N and report it.
## Output 2.61

## Input Entry CCc1c(Cl)nc(Cl)nc1Cl has what TGI?
## Output 3

## Input Returns the measured TGI for the input compound. Input: C/C(=C\CCc1ccoc1)CC/C=C(\C)CCCN1CCC(CO)CC1
## Output 6.16

## Input Quick one: TGI for C#CCNC(=O)CC[C@]1(C)[C@H]2CC[C@@H]3[C@@H]([C@@](C)(O)CCC=C(C)C)CC[C@@]3(C)[C@]2(C)CC[C@H]1C(=C)C ?
## Output 34.2

====

system: A498 renal; experiment: NCI tumour cell line growth inhibition, 48 h
Attribute: TGI

CN1CCN(Cc2ccc(NC(=O)c3ccc(C#N)c(C#Cc4cnc(N)c5ncccc45)c3)cc2C(F)(F)F)CC1	10.6 µM
C[C@H]1CC[C@@H]2[C@@H](C)[C@H]3[C@H](C[C@H]4[C@@H]5CC=C6C[C@@H](O)CC[C@]6(C)[C@H]5C[C@H](O)[C@]34C)N2C1	> 100 µM
O=C(/C=C(\Nc1ccccc1O)c1ccccc1)C(=O)NC12CC3CC(CC(C3)C1)C2	> 10 µM
CC(=O)OCC12C(OC(C)=O)C[C@@H](C)C3(CC(c4ccoc4)OC3=O)C1CCC(O)C21CO1 (stereo not given in full)	> 100 µM
CCc1c(Cl)nc(Cl)nc1Cl	16.8 µM

## Input Which measured TGI value corresponds to COc1ccc(C2=C(c3cc(OC)c(OC)c(OC)c3)C(=O)CC2)cc1 ?
## Output 0.429 µM

## Input Looking for the measured TGI of NCC(NC(=O)OCc1ccccc1)C(=O)O (stereo not given) , can you help?
## Output > 50 µM

## Input Item COC(=O)Nc1nc2cc3c(cc2s1)OCCO3 has what recorded TGI?
## Output > 50 µM

## Input So what's the measured TGI for this one? COC(=O)NN=C(c1ccc(Cl)cc1)c1ccc(Cl)cc1
## Output > 100 µM

## Input May I ask what TGI has been recorded for Cn1cc(C[C@@H](N)C(=O)O)c2ccccc21 ?
## Output > 100 µM

====

The compounds listed here are annotated with their TGI.
system: OVCAR-3 ovarian; assay: NCI tumour cell line growth inhibition, 48 h

Known results for compounds:
CC(C)c1cccc(C(C)C)c1NC(=O)C(=O)C(C(=O)c1ccc2ccccc2c1)C1OC(=O)c2ccccc21 (centres undefined)	> 100 µM
CCOC(=O)c1c(C)n2c(=O)cc(C)c3c(OC(C)=O)c(OC(C)=O)cc1c32	> 62.7 µM
CCOC(=O)C(=O)N=Nc1nc2c(O)c3ccccc3c(O)c2s1	4.07 µM
CC(=O)Nc1cc2c(cc1O)CC[C@@H]1[C@@H]2CC[C@]2(C)[C@@H](O)CC[C@@H]12	> 100 µM
O=c1[nH]c(SCc2c(Cl)c(Cl)c(Cl)c(Cl)c2Cl)nc(=S)[nH]1	31 µM

Then this compound:
## Input What value of TGI has been recorded for this entry: O=c1cc(-c2ccccc2)oc2ccc(Oc3nnnn3-c3ccccc3)cc12
## Output > 100 µM

====

test system: RXF 393 renal; assay: NCI tumour cell line growth inhibition, 48 h
Documented TGI across a set of compounds
Report the value in µM with no unit label.

Solved entries (count: 2):
[N-]=[N+]=Nc1c([N+](=O)[O-])c(Cl)nc2ccccc12	3.28
Cc1c[nH]c(C(=O)O)c1-c1ccc2c(-c3ccccc3)nc3ccccc3n12	55.2

## Input Bench note: what TGI did CCOc1ccc(/C=C/[N+](=O)[O-])cc1 show?
## Output 3.56

## Input Requested field: TGI. Item: COC(=O)C(Cc1ccccc1I)C1=CCC2(CC1)OCCO2 (stereo not given)
## Output 42.5

## Input Field request: TGI | item: O=C(c1cccs1)c1c(C(F)(F)F)n([O-])c2ccc(F)cc2[n+]1=O
## Output 2.74

## Input TGI lookup needed for CN(C)CCCNc1nnc(NCCCN(C)C)c2c(=O)c3sccc3[nH]c12 , thanks.
## Output 42.1

## Input Which TGI is reported for this compound? O=C1/C(=C\c2coc3ccccc3c2=O)c2ccccc2N1c1c(Cl)cccc1Cl
## Output 5.11

## Input For the compound shown here, COc1cc([C@@H]2c3cc4c(cc3[C@@H](O[C@@H]3O[C@@H]5CO[C@@H](c6cccs6)O[C@H]5[C@H](O)[C@H]3O)[C@H]3COC(=O)[C@H]23)OCO4)cc(OC)c1O , give the reported TGI.
## Output 3.41
